# tgt: T1, full length human tau protein 2N4R (hT40) (human, UniProt P10636 1-758)
# T1 construct: recombinant; also called T441
# experiment.description: SPR, scAb captured, tau analyte
test.readout: koff (s⁻¹)
Give just the numeric value; s⁻¹ need not be written.

Give reported koff value for 412E10 scAb (scFv, not shown: small tags and cut ends, scAb) scFv: QVQLQESGPSLVKPSQTLSLTCTVSGFSVISDSVAWVRQAPGKVPEWLGASGSSGNKYYNPALKSRLSITRDTSKSQVSLSLSSVTTEDTAVYYCARGIIAGVDVWGRGLLVTVSSEGKSSGASGESKVDDQAVLTQPSSVSGSLGQRVSITCSGSSSNVGYGNYVGWYQQVPGSAPKLLIYGTAIRASGVPDRFSGSRSGDTATLTITSLQAEDEADYYCASYQSNYAFFGSGTRLTVLG
0.00085

Give reported koff value for 3bG4 scAb (scFv, not shown: small tags and cut ends, scAb) scFv: QVQLQESGPSLVKPSQTLSLTCTISGFSLISNGVGWVRQAPGKVPEWVGDIASSGKAYSNPALKSRLSITRDTSKSQVSLSLRSVTTEDTAVYYCVRCRDGGVTYGYDIDYWGPGLLVTVSSEGKSSGASGESKVDDQAVLTQPSSVSKSLGQSVSITCSGSTSNVGSGNDVSWFQQVPGSAPKLLFYGATNRASGVPDRFSGSRSGNTATLTITSLQAEDEADYYCGSYDSNSGGIFGSGTRLTVLG
0.0597
